These entries and their values trace back to the supplement of paper PMC10567573.

B1: POMT2 (parent)
chain: LRGGGQVLLGWTLHYFPFFLMGRV

variants of: B1; assay: protein stability index of a GFP-peptide fusion (GPS, HEK-293T) (PSI 1-6); higher = more stable; conditions: c terminus: a fixed tail appended;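 further: lentivirally expressed fusions sorted by FACS into six bins by GFP to DsRed ratio, PSI derived from sequencing read proportions per bin multiplied by bin number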
assay_metric: protein stability index

The cases that follow already have their protein stability index on record.
mutation_code | val
G4W | 1.47
V7G | 3.97
F18V | 3.11
G3I | 2.59
F19Q | 4.97

For each entry beneath this line, provide reported protein stability index.
1. G5N
2. F16T
3. G5T
4. L9Q

Data returned:
1: 3.2; 2: 3.4; 3: 2.95; 4: 1.61
